System: 299254-011-R-J1-PDC complex spheroid viability;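 further: spheroids exposed to drugs for one week before measurement; percent viability relative to DMSO vehicle control taken as 100%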
Assay: Anticancer human tumor 299254-011-R-J1-PDC patient-derived melanoma cell line growth inhibition [POLQ]
Details: second compound 0.316 µM; first compound 10 µM; hits give low values
Description: Multicellular complex tumor spheroid response to Polymerase (POL) inhibitors (novobiocin, ART-558, RP6685) in combination with a variety of drugs and investigational agents in selected tumor cell lines The POL inhibitors (novobiocin, ART-558, and RP6685) were evaluated both individually and in combination with standard of care and investigational anticancer small molecules within a complex spheroid model of solid tumors. . […]
Entries and their viability, T/C
Report the value in % with no unit label.

Some solved entries appear below for comparison.
- Compound: "CCc1cc2c(N3CCc4c(cc(Cn5ccnc5)cc4-c4cn(C)nc4C(F)(F)F)C3=O)ccnc2c(OC)n1 + Nc1ccc(C#CCN(C(=O)Cc2ncc(C(F)(F)F)cc2C(F)(F)F)c2ccc(F)cc2)nn1"
  Measured Attribute: "viability, T/C"
  Value Measured: 79.5
- Compound: "COc1ccc([C@@H](O)c2cc(-c3ncnc4cc(N5CCOCC5)ccc34)c(F)cc2Cl)nn1 + COC1C(OC(N)=O)C(O)C(Oc2ccc3c(O)c(NC(=O)c4ccc(O)c(CC=C(C)C)c4)c(=O)oc3c2C)OC1(C)C"
  Measured Attribute: "viability, T/C"
  Value Measured: 45.4
- Compound: "O=C(c1cc(Cc2n[nH]c(=O)c3ccccc23)ccc1F)N1CCN(C(=O)C2CC2)CC1 + Cc1cccc(N(C)C(=O)C2C(O)CCN2c2nc(C)cc(C(F)(F)F)c2C#N)c1"
  Measured Attribute: "viability, T/C"
  Value Measured: 83.8
- Compound: "O=c1[nH]cc(F)c(=O)[nH]1 + Nc1ccc(C#CCN(C(=O)Cc2ncc(C(F)(F)F)cc2C(F)(F)F)c2ccc(F)cc2)nn1"
  Measured Attribute: "viability, T/C"
  Value Measured: 68
- Compound: "O=C(c1cc(Cc2n[nH]c(=O)c3ccccc23)ccc1F)N1CCN(C(=O)C2CC2)CC1 + COC1C(OC(N)=O)C(O)C(Oc2ccc3c(O)c(NC(=O)c4ccc(O)c(CC=C(C)C)c4)c(=O)oc3c2C)OC1(C)C"
  Measured Attribute: "viability, T/C"
  Value Measured: 99.5
- Compound: "CCCS(=O)(=O)Nc1ccc(F)c(C(=O)c2c[nH]c3ncc(-c4ccc(Cl)cc4)cc23)c1F + Nc1ccc(C#CCN(C(=O)Cc2ncc(C(F)(F)F)cc2C(F)(F)F)c2ccc(F)cc2)nn1"
  Measured Attribute: "viability, T/C"
  Value Measured: 49.7

Task: Return value of viability, T/C for input O=C(Nc1ccc(O)c(NS(=O)(=O)c2ccc(F)cc2)c1)c1ccc(-c2ccccc2)cc1 + Cc1cccc(N(C)C(=O)C2C(O)CCN2c2nc(C)cc(C(F)(F)F)c2C#N)c1 , no commentary.
Result: 56.2

Task: Return value of viability, T/C for input C=CC(=O)N1CCN(c2nc(=O)n(-c3c(C)ccnc3C(C)C)c3nc(-c4c(O)cccc4F)c(F)cc23)C(C)C1 (stereo not given) + Nc1ccc(C#CCN(C(=O)Cc2ncc(C(F)(F)F)cc2C(F)(F)F)c2ccc(F)cc2)nn1 , no commentary.
Result: 78.4

Task: Return value of viability, T/C for input COc1cccc2c1C(=O)c1c(O)c3c(c(O)c1C2=O)CC(O)(C(=O)CO)CC3OC1CC(N)C(O)C(C)O1 (stereo not given) + Nc1ccc(C#CCN(C(=O)Cc2ncc(C(F)(F)F)cc2C(F)(F)F)c2ccc(F)cc2)nn1 , no commentary.
Result: 2.99
